Target: mouse delta opioid receptor (mDOR) (Mus musculus)
Construct: expressed in transfected cells; host or cells: HEK-293T, transient (PEI), with BRET sensor cDNAs
Sequence (P32300 whole entry): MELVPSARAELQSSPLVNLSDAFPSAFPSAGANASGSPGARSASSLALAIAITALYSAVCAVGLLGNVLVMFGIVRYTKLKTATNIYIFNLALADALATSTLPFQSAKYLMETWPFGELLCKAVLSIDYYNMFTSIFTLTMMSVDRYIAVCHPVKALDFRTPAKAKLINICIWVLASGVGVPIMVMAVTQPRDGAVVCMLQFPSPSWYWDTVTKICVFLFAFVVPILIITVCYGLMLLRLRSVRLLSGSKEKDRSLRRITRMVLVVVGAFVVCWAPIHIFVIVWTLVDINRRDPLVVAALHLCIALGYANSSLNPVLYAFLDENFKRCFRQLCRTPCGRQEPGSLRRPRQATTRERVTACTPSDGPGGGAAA
Experiment: BRET assay, G-protein activation, mDOR
Assay type: cell-based
Details: mDOR, BRET
readout.kind: G-Protein activation pEC50 ± SEM
Give the value as a plain number.

O=C(N[C@@H]1C=CC2[C@H]3Cc4ccc(O)c5c4[C@@]2(CCN3CC2CC2)[C@H]1O5)c1cccc(I)c1 (some centres unmarked) [MP1104, reference compound]
8.9
O=C(N[C@@H]1CC[C@@]2(O)C3Cc4ccc(O)cc4[C@@]2(CCN3CC2CC2)C1)c1cccc(I)c1
8.2
N=C(N)NCc1cccc(C(=O)N[C@@H]2CCC3C4Cc5ccc(O)c6c5[C@@]3(CCN4CC3CC3)C2O6)c1 (some centres unmarked)
7.6
CO[C@@]12CC[C@@H](NC(=O)c3cccc(I)c3)C3Oc4c(O)ccc5c4[C@@]31CCN(CC1CC1)C2C5 (some centres unmarked)
7.4

Then there is this compound:
Query string: Give G-Protein activation pEC50 ± SEM for O=C(N[C@@H]1CC[C@@]2(O)[C@H]3Cc4ccc(O)c5c4[C@@]2(CCN3CC2CC2)[C@H]1O5)c1cccc(I)c1 [IBNtxA, reference compound]
Result string: 9.3

---

Molecular target: rat kappa opioid receptor (rKOR) (Rattus norvegicus, UniProt P34975)
Construct: expressed in transfected cells; host or cells: HEK-293T, transient (PEI), with BRET sensor cDNAs
Sequence (P34975 whole entry): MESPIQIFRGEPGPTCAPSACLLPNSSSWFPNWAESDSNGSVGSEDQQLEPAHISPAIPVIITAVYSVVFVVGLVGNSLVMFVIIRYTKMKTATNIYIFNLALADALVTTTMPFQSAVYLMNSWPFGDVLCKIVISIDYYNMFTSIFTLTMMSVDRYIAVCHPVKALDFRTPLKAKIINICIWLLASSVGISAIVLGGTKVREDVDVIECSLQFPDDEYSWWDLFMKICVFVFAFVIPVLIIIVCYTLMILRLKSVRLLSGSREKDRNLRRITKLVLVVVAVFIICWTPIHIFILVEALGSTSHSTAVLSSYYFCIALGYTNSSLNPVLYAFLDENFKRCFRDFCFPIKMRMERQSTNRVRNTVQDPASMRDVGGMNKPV
Assay: BRET assay, G-protein activation, rKOR
Type: cell-based
Conditions: read-out: Gi Emax rKOR
Binary call on Emax: true from 40% upward, false beneath that.

Look over these answered cases.
O=C(N[C@@H]1CCC2C3Cc4ccc(O)c5c4C2(CCN3CC2CC2)C1O5)c1cccc(I)c1 (some centres unmarked) [MP1202]
true
O=C(N[C@@H]1CC[C@@]2(O)C3Cc4ccc(O)cc4[C@@]2(CCN3CC2CC2)C1)c1cccc(I)c1 [MP1601]
true
CO[C@@]12CC[C@@H](NC(=O)c3cccc(I)c3)C3Oc4c(O)ccc5c4[C@@]31CCN(CC1CC1)C2C5 (some centres unmarked) [MP1305]
false

Consider the record given below.
Query string: # bool: Emax of NCc1cccc(C(=O)NC2CCC3C4Cc5ccc(O)c6c5C3(CCN4CC3CC3)C2O6)c1 (centres unmarked) [MP1207] >= 40%
Result string: false

---

Below, each entry is listed with its recorded Gi pEC50±SEM rKOR.
Biological target: rat kappa opioid receptor (rKOR) (Rattus norvegicus)
Construct: expressed in transfected cells; host or cells: HEK-293T, transient (PEI), with BRET sensor cDNAs
Experiment: BRET assay, G-protein activation, rKOR
Type: cell-based
Settings: BRET
Give the value as a plain number.

N=C(N)NCc1cccc(C(=O)N[C@@H]2CCC3C4Cc5ccc(O)c6c5[C@@]3(CCN4CC3CC3)C2O6)c1 (some centres unmarked) [MP1208]
8.97
O=C(N[C@@H]1CC[C@@]2(O)C3Cc4ccc(O)cc4[C@@]2(CCN3CC2CC2)C1)c1cccc(I)c1 [MP1601]
8.1
O=C(N[C@@H]1CC[C@@]2(O)[C@H]3Cc4ccc(O)c5c4[C@@]2(CCN3CC2CC2)[C@H]1O5)c1cccc(I)c1 [IBNtxA, reference compound]
10.2
CO[C@@]12CC[C@@H](NC(=O)c3cccc(I)c3)C3Oc4c(O)ccc5c4[C@@]31CCN(CC1CC1)C2C5 (some centres unmarked) [MP1305]
8.3

Query string: Give Gi pEC50±SEM rKOR for O=C(N[C@@H]1C=CC2[C@H]3Cc4ccc(O)c5c4[C@@]2(CCN3CC2CC2)[C@H]1O5)c1cccc(I)c1 (some centres unmarked) [MP1104, reference compound]
Result string: 10.14

---

Target: rat kappa opioid receptor (rKOR) (Rattus norvegicus, UniProt P34975)
Construct: expressed in transfected cells; host or cells: HEK-293T, transient (PEI), with BRET sensor cDNAs
Assay: BRET assay, G-protein activation, rKOR
Type: cell-based
Conditions: BRET; read-out: Gi EC50 rKOR
Labelling field: enter Yes if recorded EC50 is less than 0.1 nM. Enter No if it equals or exceeds that cut-off.

O=C(N[C@@H]1CC[C@@]2(O)C3Cc4ccc(O)cc4[C@@]2(CCN3CC2CC2)C1)c1cccc(I)c1
No
O=C(N[C@@H]1C=CC2[C@H]3Cc4ccc(O)c5c4[C@@]2(CCN3CC2CC2)[C@H]1O5)c1cccc(I)c1 (stereo partly drawn) [MP1104, reference compound]
Yes
N=C(N)NCc1cccc(C(=O)N[C@@H]2CCC3C4Cc5ccc(O)c6c5[C@@]3(CCN4CC3CC3)C2O6)c1 (stereo partly drawn)
No

Query string: Find out if reported EC50 for O=C(N[C@@H]1CCC2C3Cc4ccc(O)c5c4C2(CCN3CC2CC2)C1O5)c1cccc(I)c1 (stereo partly drawn) is less than 0.1 nM
Result string: No

Query string: Find out if reported EC50 for NCc1cccc(C(=O)NC2CCC3C4Cc5ccc(O)c6c5C3(CCN4CC3CC3)C2O6)c1 (stereo not drawn) is less than 0.1 nM
Result string: No

Query string: Find out if reported EC50 for O=C(N[C@@H]1CC[C@@]2(O)[C@H]3Cc4ccc(O)c5c4[C@@]2(CCN3CC2CC2)[C@H]1O5)c1cccc(I)c1 [IBNtxA, reference compound] is less than 0.1 nM
Result string: Yes

---

Target: hDOR (Homo sapiens)
Sequence (P41143 whole entry): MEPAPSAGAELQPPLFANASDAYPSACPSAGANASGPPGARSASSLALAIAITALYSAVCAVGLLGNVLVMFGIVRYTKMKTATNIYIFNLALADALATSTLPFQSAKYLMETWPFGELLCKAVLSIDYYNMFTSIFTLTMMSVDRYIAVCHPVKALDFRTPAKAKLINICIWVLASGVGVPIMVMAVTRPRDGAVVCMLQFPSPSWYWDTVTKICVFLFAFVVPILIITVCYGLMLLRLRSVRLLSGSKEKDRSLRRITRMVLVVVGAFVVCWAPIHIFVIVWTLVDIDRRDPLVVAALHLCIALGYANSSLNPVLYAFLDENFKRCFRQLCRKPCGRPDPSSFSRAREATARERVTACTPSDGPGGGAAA
Assay: Tango β-arrestin recruitment assay, hDOR
Type: cell-based
Design: expressed in transfected cells; host or cells: HTLA cells expressing TEV fused-beta-Arrestin2
Settings: hDOR, Tango
Below, each entry is listed with its recorded EC50.
Quick reminder: number only, in nM, skip the unit.

These solved cases illustrate the format of a correct answer.
NCc1cccc(C(=O)NC2CCC3C4Cc5ccc(O)c6c5C3(CCN4CC3CC3)C2O6)c1 (stereo not shown)
64.1
O=C(N[C@@H]1CCC2C3Cc4ccc(O)c5c4C2(CCN3CC2CC2)C1O5)c1cccc(I)c1 (stereo partly shown)
18.1
O=C(N[C@@H]1CC[C@@]2(O)[C@H]3Cc4ccc(O)c5c4[C@@]2(CCN3CC2CC2)[C@H]1O5)c1cccc(I)c1 [IBNtxA, reference compound]
14.1

Then there is this compound:
Query string: Fetch value of EC50 on hDOR (Homo sapiens) for CO[C@@]12CC[C@@H](NC(=O)c3cccc(I)c3)C3Oc4c(O)ccc5c4[C@@]31CCN(CC1CC1)C2C5 (stereo partly shown) .
Result string: 228

---

Molecular target: mDOR (Mus musculus, UniProt P32300)
Construct: expressed in transfected cells
Assay: [35S]GTPγS functional assay, mDOR
Assay type: biochemical
readout.kind: Emax (%)
Quick reminder: number only, in %, skip the unit.

These solved cases illustrate the format of a correct answer.
CO[C@@]12CC[C@@H](NC(=O)c3cccc(I)c3)C3Oc4c(O)ccc5c4[C@@]31CCN(CC1CC1)C2C5 (some centres unmarked)
22
O=C(N[C@@H]1CC[C@@]2(O)C3Cc4ccc(O)cc4[C@@]2(CCN3CC2CC2)C1)c1cccc(I)c1
67

Then there is this molecule:
Query string: Give Emax for O=C(N[C@@H]1CCC2C3Cc4ccc(O)c5c4C2(CCN3CC2CC2)C1O5)c1cccc(I)c1 (some centres unmarked)
Result string: 71

---

Below, each entry is listed with its recorded EC50.
Biological target: hMOR (Homo sapiens, UniProt P35372)
Construct: expressed in transfected cells; host or cells: HEK 293T (ATCC CRL-11268), transient
Sequence (P35372 whole entry): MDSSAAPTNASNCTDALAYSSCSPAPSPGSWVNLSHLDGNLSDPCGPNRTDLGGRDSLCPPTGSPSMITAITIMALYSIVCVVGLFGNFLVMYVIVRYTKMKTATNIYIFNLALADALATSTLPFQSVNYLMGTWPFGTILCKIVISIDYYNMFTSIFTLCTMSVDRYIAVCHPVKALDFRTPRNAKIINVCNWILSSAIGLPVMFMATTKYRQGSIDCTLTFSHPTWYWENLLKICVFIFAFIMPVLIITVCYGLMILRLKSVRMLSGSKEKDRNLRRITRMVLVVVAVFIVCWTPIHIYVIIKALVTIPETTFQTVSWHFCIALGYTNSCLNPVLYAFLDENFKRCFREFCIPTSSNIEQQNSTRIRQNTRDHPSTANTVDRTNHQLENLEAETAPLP
Assay: Tango β-arrestin recruitment assay, hMOR
Type: cell-based
Details: Tango
# output: number + unit

These solved cases illustrate the format of a correct answer.
CO[C@@]12CC[C@@H](NC(=O)c3cccc(I)c3)C3Oc4c(O)ccc5c4[C@@]31CCN(CC1CC1)C2C5 (stereo partly shown)
16.4 nM
O=C(N[C@@H]1CC[C@@]2(O)[C@H]3Cc4ccc(O)c5c4[C@@]2(CCN3CC2CC2)[C@H]1O5)c1cccc(I)c1 [IBNtxA, reference compound]
5.86 nM
O=C(N[C@@H]1CCC2C3Cc4ccc(O)c5c4C2(CCN3CC2CC2)C1O5)c1cccc(I)c1 (stereo partly shown)
26.8 nM

Then there is this molecule:
Query string: Fetch value of EC50 on hMOR (Homo sapiens, UniProt P35372) for O=C(N[C@@H]1C=CC2[C@H]3Cc4ccc(O)c5c4[C@@]2(CCN3CC2CC2)[C@H]1O5)c1cccc(I)c1 (stereo partly shown) [MP1104, reference compound] .
Result string: 0.573 nM

---

Target: hKOR (Homo sapiens)
Construct: expressed in transfected cells; host or cells: HEK 293T (ATCC CRL-11268), transient
Sequence (P41145 whole entry): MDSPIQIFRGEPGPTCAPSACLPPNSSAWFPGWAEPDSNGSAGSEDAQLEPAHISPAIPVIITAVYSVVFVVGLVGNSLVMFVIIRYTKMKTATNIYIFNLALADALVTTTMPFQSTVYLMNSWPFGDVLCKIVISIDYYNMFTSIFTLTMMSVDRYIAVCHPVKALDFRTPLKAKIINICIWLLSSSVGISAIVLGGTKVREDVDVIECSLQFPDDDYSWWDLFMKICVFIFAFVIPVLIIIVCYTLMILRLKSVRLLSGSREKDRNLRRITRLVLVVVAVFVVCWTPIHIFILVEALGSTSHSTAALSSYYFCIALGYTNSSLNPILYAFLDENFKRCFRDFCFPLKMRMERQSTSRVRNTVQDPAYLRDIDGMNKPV
Assay: Tango β-arrestin recruitment assay, hKOR
Type: cell-based
Settings: Tango, WT-hKOR
Below, each entry is listed with its recorded Arrestin pEC50±SEM hKOR.
Give the value as a plain number.

These solved cases illustrate the format of a correct answer.
CO[C@@]12CC[C@@H](NC(=O)c3cccc(I)c3)C3Oc4c(O)ccc5c4[C@@]31CCN(CC1CC1)C2C5 (stereo partly shown) [MP1305]
7.6
O=C(N[C@@H]1CC[C@H]2[C@H]3Cc4ccc(O)c5c4[C@@]2(CCN3CC2CC2)[C@H]1O5)c1cccc(CO)c1 [MP1210]
8.94
O=C(N[C@@H]1CC[C@@]2(O)C3Cc4ccc(O)cc4[C@@]2(CCN3CC2CC2)C1)c1cccc(I)c1 [MP1601]
8.49

Then there is this molecule:
Query string: Give Arrestin pEC50±SEM hKOR for O=C(N[C@@H]1C=CC2[C@H]3Cc4ccc(O)c5c4[C@@]2(CCN3CC2CC2)[C@H]1O5)c1cccc(I)c1 (stereo partly shown) [MP1104, reference compound]
Result string: 10.4
